testTarget: cardiac SR (SERCA2a + PLB) (Sus scrofa)
Construct: Cardiac SR membrane vesicles were isolated from ventricular myocardium obtained from fresh pig hearts; from tissue; host or cells: pig ventricular myocardium, SR membrane vesicles
assayProcedure: Ca-ATPase activity of cardiac SR (CSR), NADH-linked enzyme-coupled assay
Type: biochemical, pig
conditionDescription: CSR, 30 µM compound, relative to DMSO control

# compound, ΔVmax @ 30 µM
data = [
    ("CN=c1nc(-c2ccccc2)n(-c2ccccc2)s1 [SCH 202676]", "-68.2%"),
    ("Brc1c(Br)c(Br)c2n[nH]nc2c1Br [TBB]", "-27.2%"),
    ("C=C(C)[C@H]1Cc2c(ccc3c2O[C@@H]2COc4cc(OC)c(OC)cc4[C@@H]2C3=O)O1 [Rotenone]", "-22.0%"),
    ("Cc1[nH]c(=O)c(C#N)cc1-c1ccc2nccn2c1 [Olprinone]", "-0.1%"),
    ("CC(C)(C)c1ccc(/C=C/C(=O)Nc2ccc3c(c2)OCCO3)cc1 [AMG9810]", "0.1%"),
    ("CCCCCCCCCCCCCCCC(=O)OC(CC(=O)O)C[N+](C)(C)C.[Cl-] (racemic) [Palmitoyl-DL-carnitine chloride]", "-67.1%"),
    ("CC1=C(/C=C/C(C)=C/C=C/C(C)=C/C(=O)O)C(C)(C)CCC1 [Retinoic Acid]", "-37.8%"),
    ("O=C(c1cc(O)c(O)c([N+](=O)[O-])c1)c1ccccc1F [Ro 41-0960]", "-20.9%"),
    ("CCOc1nc2cccc(C(=O)OC(C)OC(=O)OC3CCCCC3)c2n1Cc1ccc(-c2ccccc2-c2nnn[nH]2)cc1 (stereo not drawn) [Candesartan cilexetil]", "-75.3%"),
]

====

testTarget: cardiac SR (SERCA2a + PLB) (Sus scrofa, UniProt P11607)
Construct: Cardiac SR membrane vesicles were isolated from ventricular myocardium obtained from fresh pig hearts; from tissue; host or cells: pig ventricular myocardium, SR membrane vesicles
Sequence (P11607 1-997 isoform P11607-2): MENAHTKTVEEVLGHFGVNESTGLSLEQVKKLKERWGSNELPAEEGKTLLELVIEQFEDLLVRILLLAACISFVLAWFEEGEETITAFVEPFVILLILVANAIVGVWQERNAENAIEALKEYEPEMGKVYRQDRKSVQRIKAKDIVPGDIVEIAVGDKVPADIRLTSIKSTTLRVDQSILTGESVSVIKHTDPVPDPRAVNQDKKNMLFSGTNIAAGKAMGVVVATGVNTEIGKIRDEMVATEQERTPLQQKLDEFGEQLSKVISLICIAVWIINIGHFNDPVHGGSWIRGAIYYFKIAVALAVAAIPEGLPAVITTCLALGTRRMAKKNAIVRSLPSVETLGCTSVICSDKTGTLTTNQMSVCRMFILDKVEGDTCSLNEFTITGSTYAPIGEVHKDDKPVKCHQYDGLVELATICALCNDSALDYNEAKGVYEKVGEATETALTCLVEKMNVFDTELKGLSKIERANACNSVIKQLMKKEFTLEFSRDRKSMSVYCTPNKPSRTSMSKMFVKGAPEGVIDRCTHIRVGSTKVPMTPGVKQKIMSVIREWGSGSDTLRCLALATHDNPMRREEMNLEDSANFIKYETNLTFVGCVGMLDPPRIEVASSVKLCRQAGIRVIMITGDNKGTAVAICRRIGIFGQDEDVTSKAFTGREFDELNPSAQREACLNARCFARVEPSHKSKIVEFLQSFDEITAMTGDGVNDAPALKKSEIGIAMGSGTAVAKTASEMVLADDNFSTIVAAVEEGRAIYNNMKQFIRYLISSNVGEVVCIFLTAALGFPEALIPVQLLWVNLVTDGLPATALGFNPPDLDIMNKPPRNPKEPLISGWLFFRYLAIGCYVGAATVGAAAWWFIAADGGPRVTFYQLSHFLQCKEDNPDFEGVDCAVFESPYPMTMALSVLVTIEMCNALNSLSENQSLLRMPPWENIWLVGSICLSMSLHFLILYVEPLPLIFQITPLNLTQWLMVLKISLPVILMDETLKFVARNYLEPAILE
Sequence (P61013 whole entry partner): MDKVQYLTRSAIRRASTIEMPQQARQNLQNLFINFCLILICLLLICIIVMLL
assayProcedure: Ca-ATPase activity of cardiac SR (CSR), NADH-linked enzyme-coupled assay
Format: biochemical, pig
conditionDescription: cardiac SR (SERCA2a + PLB); read-out: EC50 of the increase in Ca affinity (pKCa)
assayEndpoint: EC50

# compound, testTarget, assayEndpoint, result
records = [
    ("O=C(c1cc(O)c(O)c([N+](=O)[O-])c1)c1ccccc1F [Ro 41-0960]", "cardiac SR (SERCA2a + PLB) (Sus scrofa, UniProt P11607)", "EC50", "23 µM"),
]

====

testTarget: cardiac SR (SERCA2a + PLB) (Sus scrofa)
Construct: Cardiac SR membrane vesicles were isolated from ventricular myocardium obtained from fresh pig hearts; from tissue; host or cells: pig ventricular myocardium, SR membrane vesicles
assayProcedure: Ca-ATPase activity of cardiac SR (CSR), NADH-linked enzyme-coupled assay
Assay type: biochemical, pig
conditionDescription: CSR, 30 µM compound
# Vmax @ 30 µM annotations
assayEndpoint: Vmax @ 30 µM (i.u.)

# compound, assayEndpoint, numericResult
records = [
    ("CC(C)(C)c1ccc(/C=C/C(=O)Nc2ccc3c(c2)OCCO3)cc1 [AMG9810]", "Vmax @ 30 µM", 0.68),
    ("C=C(C)[C@H]1Cc2c(ccc3c2O[C@@H]2COc4cc(OC)c(OC)cc4[C@@H]2C3=O)O1 [Rotenone]", "Vmax @ 30 µM", 0.53),
    ("Oc1ccc(/C=C/c2ccc(/C=C/c3ccc(O)cc3)c(Br)c2)cc1 [K114]", "Vmax @ 30 µM", 0.11),
    ("Cc1[nH]c(=O)c(C#N)cc1-c1ccc2nccn2c1 [Olprinone]", "Vmax @ 30 µM", 0.68),
    ("CC1=C(/C=C/C(C)=C/C=C/C(C)=C/C(=O)O)C(C)(C)CCC1 [Retinoic Acid]", "Vmax @ 30 µM", 0.42),
    ("CCCCCCCCCCCCCCCC(=O)OC(CC(=O)O)C[N+](C)(C)C.[Cl-] (racemic) [Palmitoyl-DL-carnitine chloride]", "Vmax @ 30 µM", 0.22),
    ("O=C(Nc1cccnc1)N1CCC(Cc2cccc(Oc3ccc(C(F)(F)F)cn3)c2)CC1 [PF3845]", "Vmax @ 30 µM", 0.48),
    ("CN1CCC[C@@H]1Cc1c[nH]c2ccc(Nc3ncccc3[N+](=O)[O-])cc12 [CP-135807]", "Vmax @ 30 µM", 0.65),
    ("CCCCN(CC)c1nc(C)nc2c1c(C)cn2-c1c(C)cc(C)cc1C [CP 154526]", "Vmax @ 30 µM", 0.91),
    ("COC(=O)c1c(C)[nH]c(C)c1C(=O)c1ccccc1Cc1ccccc1 [FPL 64176]", "Vmax @ 30 µM", 0.52),
    ("O=C(c1cc(O)c(O)c([N+](=O)[O-])c1)c1ccccc1F [Ro 41-0960]", "Vmax @ 30 µM", 0.53),
    ("CNC(=O)c1cc2c(cn1)[nH]c1ccccc12 [FG7142]", "Vmax @ 30 µM", 0.67),
    ("Clc1ccc(C(c2ccc(Cl)cc2)n2cc[n+](CC(OCc3ccc(Cl)cc3Cl)c3ccc(Cl)cc3Cl)c2)cc1 (stereo not drawn) [Calmidazolium]", "Vmax @ 30 µM", 0.08),
    ("Brc1c(Br)c(Br)c2n[nH]nc2c1Br [TBB]", "Vmax @ 30 µM", 0.49),
    ("CCc1ccc(/C=C2/SC(=S)NC2=O)cc1 [10058-F4]", "Vmax @ 30 µM", 0.63),
    ("CCOc1nc2cccc(C(=O)OC(C)OC(=O)OC3CCCCC3)c2n1Cc1ccc(-c2ccccc2-c2nnn[nH]2)cc1 (stereo not drawn) [Candesartan cilexetil]", "Vmax @ 30 µM", 0.17),
    ("CN=c1nc(-c2ccccc2)n(-c2ccccc2)s1 [SCH 202676]", "Vmax @ 30 µM", 0.22),
    ("NC(=O)N1C(=O)/C(=C(\\O)c2cccs2)c2cc(Cl)ccc21 [Tenidap]", "Vmax @ 30 µM", 0.66),
]

====

testTarget: cardiac SR (SERCA2a + PLB) (Sus scrofa, UniProt P11607)
Construct: Cardiac SR membrane vesicles were isolated from ventricular myocardium obtained from fresh pig hearts; from tissue; host or cells: pig ventricular myocardium, SR membrane vesicles
assayProcedure: Ca-ATPase activity of cardiac SR (CSR), NADH-linked enzyme-coupled assay
Assay type: biochemical, pig
conditionDescription: CSR, 30 µM compound, relative to DMSO control
# ΔVmax @ 30 µM annotations

# compound, testTarget, unitTag, ΔVmax @ 30 µM
measured = [
    ("NC(=O)N1C(=O)/C(=C(\\O)c2cccs2)c2cc(Cl)ccc21 [Tenidap]", "cardiac SR (SERCA2a + PLB) (Sus scrofa, UniProt P11607)", "%", -1.7),
    ("Clc1ccc(C(c2ccc(Cl)cc2)n2cc[n+](CC(OCc3ccc(Cl)cc3Cl)c3ccc(Cl)cc3Cl)c2)cc1 (centres unmarked) [Calmidazolium]", "cardiac SR (SERCA2a + PLB) (Sus scrofa, UniProt P11607)", "%", -88.7),
    ("O=C(Nc1cccnc1)N1CCC(Cc2cccc(Oc3ccc(C(F)(F)F)cn3)c2)CC1 [PF3845]", "cardiac SR (SERCA2a + PLB) (Sus scrofa, UniProt P11607)", "%", -28.3),
    ("CNC(=O)c1cc2c(cn1)[nH]c1ccccc12 [FG7142]", "cardiac SR (SERCA2a + PLB) (Sus scrofa, UniProt P11607)", "%", -0.7),
    ("COC(=O)c1c(C)[nH]c(C)c1C(=O)c1ccccc1Cc1ccccc1 [FPL 64176]", "cardiac SR (SERCA2a + PLB) (Sus scrofa, UniProt P11607)", "%", -23.0),
]

====

testTarget: skeletal SR (SERCA1a only) (Oryctolagus cuniculus)
Construct: Skeletal muscle SR membrane vesicles were isolated from longissimus dorsi obtained from New Zealand white rabbits; from tissue; host or cells: rabbit longissimus dorsi skeletal muscle, SR membrane vesicles
Sequence (P04191 1-994 isoform P04191-2): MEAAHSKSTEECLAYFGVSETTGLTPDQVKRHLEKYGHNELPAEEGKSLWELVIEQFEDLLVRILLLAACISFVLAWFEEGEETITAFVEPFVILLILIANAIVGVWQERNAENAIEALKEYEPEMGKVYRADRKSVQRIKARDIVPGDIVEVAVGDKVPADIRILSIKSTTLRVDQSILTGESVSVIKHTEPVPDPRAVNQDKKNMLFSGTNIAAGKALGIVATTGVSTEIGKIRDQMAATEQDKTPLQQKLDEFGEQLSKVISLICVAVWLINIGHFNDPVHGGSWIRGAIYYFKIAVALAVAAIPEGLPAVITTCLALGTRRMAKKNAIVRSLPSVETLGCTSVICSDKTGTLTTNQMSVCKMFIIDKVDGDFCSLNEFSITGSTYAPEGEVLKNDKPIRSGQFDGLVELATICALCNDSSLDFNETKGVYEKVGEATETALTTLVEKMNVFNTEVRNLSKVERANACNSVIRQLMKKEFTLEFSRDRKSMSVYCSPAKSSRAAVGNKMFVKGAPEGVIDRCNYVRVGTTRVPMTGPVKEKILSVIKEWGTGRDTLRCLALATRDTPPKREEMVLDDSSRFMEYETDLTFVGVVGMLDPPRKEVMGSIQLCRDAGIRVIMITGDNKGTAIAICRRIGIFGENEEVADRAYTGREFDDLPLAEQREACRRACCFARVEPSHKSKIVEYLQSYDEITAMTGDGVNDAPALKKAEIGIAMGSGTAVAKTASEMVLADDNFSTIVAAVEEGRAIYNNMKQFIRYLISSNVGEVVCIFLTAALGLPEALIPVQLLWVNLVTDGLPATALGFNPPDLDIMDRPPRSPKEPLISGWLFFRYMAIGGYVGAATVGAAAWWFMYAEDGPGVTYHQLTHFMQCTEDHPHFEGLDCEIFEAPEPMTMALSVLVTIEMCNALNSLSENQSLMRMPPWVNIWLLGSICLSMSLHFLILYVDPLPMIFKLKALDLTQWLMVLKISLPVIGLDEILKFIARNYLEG
assayProcedure: Ca-ATPase activity of skeletal SR (SSR), NADH-linked enzyme-coupled assay
Assay type: biochemical, rabbit
conditionDescription: SSR

# compound, EC50 (µM)
data = [
    ("CN=c1nc(-c2ccccc2)n(-c2ccccc2)s1", 0.9),
    ("CCCCCCCCCCCCCCCC(=O)OC(CC(=O)O)C[N+](C)(C)C.[Cl-] (racemic) [Palmitoyl-DL-carnitine chloride]", 12.2),
    ("CCOc1nc2cccc(C(=O)OC(C)OC(=O)OC3CCCCC3)c2n1Cc1ccc(-c2ccccc2-c2nnn[nH]2)cc1 (stereo not drawn)", 7.42),
    ("Clc1ccc(C(c2ccc(Cl)cc2)n2cc[n+](CC(OCc3ccc(Cl)cc3Cl)c3ccc(Cl)cc3Cl)c2)cc1 (stereo not drawn)", 7.43),
    ("O=C(c1cc(O)c(O)c([N+](=O)[O-])c1)c1ccccc1F", 9.78),
    ("Oc1ccc(/C=C/c2ccc(/C=C/c3ccc(O)cc3)c(Br)c2)cc1", 3.53),
]
